Task for the reader: assign each of the following compounds its reported MIC.
system: Serratia marcescens ATCC 27117; assay: Antibacterial activity, MIC; assay type: cell-based; settings: ATCC27117, ATCC 27117, agar two-fold dilution, 37° C., 20 hours, read-out: MIC
Just the number plus its unit, please.

> print(dat)
                                   compound  value.type   obs.value
1  CCc1c(N)nc(SCC2=C(C(=O)[O-])N3C(=O)C(NC(=O)/C(=N\OC(C)(C)C(=O)O)c4csc(N)n4)C3SC2)[n+](C)c1N (stereo not drawn)         MIC  0.25 µg/mL

Your task in this section: give MIC for each listed record.
1. COc1cccc(OC)c1-[n+]1c(N)cc(N)nc1SCC1=C(C(=O)[O-])N2C(=O)C(NC(=O)/C(=N\OC(C)(C)C(=O)O)c3csc(N)n3)C2SC1 (stereo not drawn)
2. C[n+]1c(N)cc(N)nc1SCC1=C(C(=O)[O-])N2C(=O)C(NC(=O)/C(=N\OCC(=O)O)c3csc(N)n3)C2SC1 (stereo not drawn)
3. CCO/N=C(\C(=O)NC1C(=O)N2C(C(=O)[O-])=C(CSc3nc(N)cc(N)[n+]3CC)CSC12)c1nsc(N)n1 (stereo not drawn)
4. CCO/N=C(\C(=O)NC1C(=O)N2C(C(=O)[O-])=C(CSc3nc(N)cc(N)[n+]3N)CSC12)c1csc(N)n1 (stereo not drawn)

["2 µg/mL", "0.016 µg/mL", "0.25 µg/mL", "0.13 µg/mL"]

Give the value of MIC reported for the following: CC(O/N=C(\C(=O)NC1C(=O)N2C(C(=O)[O-])=C(CSc3nc(N)cc(N)[n+]3C)CSC12)c1csc(N)n1)C(=O)O (stereo not drawn) 0.063 µg/mL

----------
test system: Bacillus cereus ATCC 11778; assay: Antibacterial activity, MIC; format: cell-based; conditions: ATCC11778, ATCC 11778, agar two-fold dilution, 37° C., 20 hours, read-out: MIC
Value Type: MIC (µg/mL)
Numbers only, in µg/mL.

Some solved cases for reference:
Compound	Tested On	Value Type	Obs Value
C=CC[n+]1c(N)cc(N)nc1SCC1=C(C(=O)[O-])N2C(=O)C(NC(=O)/C(=N\OC(C)(C)C(=O)O)c3csc(N)n3)C2SC1 (stereo not shown) [Compound I-3]	Bacillus cereus ATCC 11778	MIC	64
CCC[n+]1c(N)cc(N)nc1SCC1=C(C(=O)[O-])N2C(=O)C(NC(=O)/C(=N\OC(C)C(=O)O)c3csc(N)n3)C2SC1 (stereo not shown) [Compound I-45]	Bacillus cereus ATCC 11778	MIC	64
CC(C)(O/N=C(\C(=O)NC1C(=O)N2C(C(=O)[O-])=C(CSc3nc(N)cc(N)[n+]3C3CC3)CSC12)c1csc(N)n1)C(=O)O (stereo not shown) [Compound I-48]	Bacillus cereus ATCC 11778	MIC	64

Your task in this section: give MIC for each listed record.
1. CCc1c(N)nc(SCC2=C(C(=O)[O-])N3C(=O)C(NC(=O)/C(=N\OC(C)(C)C(=O)O)c4csc(N)n4)C3SC2)[n+](CC)c1N (stereo not shown) [Compound I-33]
2. CCO/N=C(\C(=O)NC1C(=O)N2C(C(=O)[O-])=C(CSc3nc(N)cc(N)[n+]3N)CSC12)c1nsc(N)n1 (stereo not shown) [Compound I-17]
3. CC(O/N=C(\C(=O)NC1C(=O)N2C(C(=O)[O-])=C(CSc3nc(N)cc(N)[n+]3N)CSC12)c1csc(N)n1)C(=O)O (stereo not shown) [Compound I-14]
4. COc1cccc(OC)c1-[n+]1c(N)cc(N)nc1SCC1=C(C(=O)[O-])N2C(=O)C(NC(=O)/C(=N\OC(C)(C)C(=O)O)c3csc(N)n3)C2SC1 (stereo not shown) [Compound I-43]
5. C=CCO/N=C(\C(=O)NC1C(=O)N2C(C(=O)[O-])=C(CSc3nc(N)cc(N)[n+]3CC)CSC12)c1csc(N)n1 (stereo not shown) [Compound I-50]
6. CC(C)(O/N=C(\C(=O)NC1C(=O)N2C(C(=O)[O-])=C(CSc3nc(N)cc(N)[n+]3N)CS[C@H]12)c1csc(N)n1)C(=O)O (stereo partly shown) [Compound I-15]

1: 128; 2: 8; 3: 64; 4: 32; 5: 8; 6: 64

Your task in this section: give MIC for each listed record.
1. CCc1c(N)nc(SCC2=C(C(=O)[O-])N3C(=O)C(NC(=O)/C(=N\OC(C)(C)C(=O)O)c4csc(N)n4)C3SC2)[n+](C)c1N (stereo not shown) [Compound I-31]
2. CO/N=C(\C(=O)NC1C(=O)N2C(C(=O)[O-])=C(CSc3nc(N)cc(N)[n+]3N)CSC12)c1csc(N)n1 (stereo not shown) [Compound I-19]
3. C[n+]1c(N)cc(N)nc1SCC1=C(C(=O)[O-])N2C(=O)C(NC(=O)/C(=N\OCC(=O)O)c3csc(N)n3)C2SC1 (stereo not shown) [Compound I-7]
4. C#CCO/N=C(\C(=O)NC1C(=O)N2C(C(=O)[O-])=C(CSc3nc(N)cc(N)[n+]3CC)CSC12)c1csc(N)n1 (stereo not shown) [Compound I-47]
5. CC(C)(O/N=C(\C(=O)NC1C(=O)N2C(C(=O)[O-])=C(CSc3nc(N)cc(N)[n+]3-c3ccc(O)cc3)CSC12)c1csc(N)n1)C(=O)O (stereo not shown) [Compound I-36]

[128, 8, 128, 8, 32]
